# Target Or System: human alpha-thrombin (human, UniProt P00734;P00734 328-363;364-622)
# Method Notes: inhibition of fluorogenic peptide cleavage; maximum inhibition 30%; not given in the material (Methods for BLI and fluorogenic assay are headings only)
Measured Endpoint: IC50

Binder	Reported Measurement
AGTCCGTGGTAGGGCAGGTTGGGGTGACT (structured_DNA) [HD22]	0.95 nM
